Target: RBP4 (Mus musculus (Mouse), UniProt Q00724)
Test: Single administration test in mice, plasma RBP4 by ELISA
Type: in vivo
Conditions: male C57BL/6J or ICR mice, 50 mg/kg oral single dose, 0 hr (just before the administration), mean±SD
REPORTED_METRIC: RBP4 (% of initial/Control) 0 hr

Study these solved cases before continuing.
{"columns": ["CHEM_SMILES", "RBP4 (% of initial/Control) 0 hr"],
 "data": [
  ["CC(C)(C)c1ccccc1N1CCN(C(=O)c2ncoc2CCC(=O)O)CC1", "100.0 ± 12.8 % of initial/Control"],
  ["CC(C)(C)c1cc(Cl)ccc1N1CCN(C(=O)c2ccc(OCC(=O)O)cn2)CC1", "100.0 ± 10.5 % of initial/Control"],
  ["CC(C)(C)c1cc(Br)ccc1N1CCN(C(=O)C(=O)O)CC1", "100.0 ± 26.6 % of initial/Control"],
  ["CC(C)(C)c1cc(Br)ccc1N1CCN(C(=O)CC(=O)O)CC1", "100.0 ± 13.8 % of initial/Control"],
  ["Cc1nc(C(=O)N2CCN(c3ccccc3C(C)(C)C)CC2)cn1CC(=O)O", "100.0 ± 18.9 % of initial/Control"],
  ["CC(C)(C)c1ccccc1N1CCN(C(=O)C(=O)NS(=O)(=O)NCC2CC2)CC1", "100.0 ± 5.8 % of initial/Control"]
]}

Record `CC(C)(C)c1ccccc1N1CCN(C(=O)C(=O)NCCc2ccc(C(=O)O)cc2)CC1` . Reported RBP4 (% of initial/Control) 0 hr: 100 % of initial/Control

Record `CC(C)(C)c1ccccc1N1CCN(C(=O)C(=O)Nc2ccc(CCC(=O)O)cc2)CC1` . Reported RBP4 (% of initial/Control) 0 hr: 100.0 ± 22.3 % of initial/Control

###

Target: RBP4 (Rattus norvegicus (Rat), UniProt P04916)
Test: Single administration test in Wistar fatty rats, plasma RBP4 by ELISA
Assay type: in vivo
Conditions: male Wistar fatty rats, 10 mg/kg oral single dose, 7 hr after administration, mean±SD
REPORTED_METRIC: RBP4 (% of initial/Control) 7 hr

Study these solved cases before continuing.
{"columns": ["COMPOUND", "RBP4 (% of initial/Control) 7 hr"],
 "data": [
  ["CC(C)(C)c1ccccc1N1CCN(C(=O)CCC(=O)NS(C)(=O)=O)CC1 [Example 55]", "31.6 ± 7.7 % of initial/Control"],
  ["O=C(O)CCc1nc(-c2cc(C(F)(F)F)cc(C(F)(F)F)c2)co1 [Reference Example 26, reference compound]", "24.9 ± 10.6 % of initial/Control"],
  ["CC(C)(C)c1ccccc1N1CCN(C(=O)C(=O)O)CC1 [Example 44]", "58.5 ± 5.6 % of initial/Control"]
]}

Record CC(C)(C)c1ccccc1N1CCN(C(=O)Cc2nnn[nH]2)CC1 [Example 58] . Reported RBP4 (% of initial/Control) 7 hr: 89.1 ± 15.4 % of initial/Control

Record CC(C)(C)c1ccccc1N1CCN(C(=O)NCC(=O)O)CC1 [Example 6] . Reported RBP4 (% of initial/Control) 7 hr: 27.4 ± 5.9 % of initial/Control

Record CC(C)(C)c1ccccc1N1CCN(C(=O)CC(=O)O)CC1 [Example 9] . Reported RBP4 (% of initial/Control) 7 hr: 49.2 ± 1.9 % of initial/Control
